assay: ATG_PPRE_CIS: Attagene CIS-FACTORIAL HepG2 Assay for human Peroxisome Proliferator-activated Response Element (PPRE) (AID 2282958); conditions: HepG2 PPRE cis-element reporter, Attagene transcription factor profiling; actives raise or lower the signal
Calls of active or inactive are those of the source. The calls were made as follows: active = hit-call score of the fitted dose curve at least 0.9, where 1 is the maximum; inactive = score below 0.9.
// allowed return values: active, inactive

Use the examples below as a reference point.
INSERT INTO results (compound, label_value) VALUES
  ('C=C(Cl)CCl', 'inactive'),
  ('N#Cc1cc(I)c(O)c(I)c1', 'active'),
  ('C[N+](C)(C)CC(=O)O', 'inactive'),
  ('O=CNC(N1CCN(C(NC=O)C(Cl)(Cl)Cl)CC1)C(Cl)(Cl)Cl (centres undefined)', 'inactive'),
  ('CC(C)(C)C(O)C(Oc1ccc(-c2ccccc2)cc1)n1cncn1 (centres undefined)', 'inactive');

Problem: Could you please tell me the result logged for [Cl][Sb]([Cl])[Cl] in this assay?
Solution: inactive

Problem: Could you please tell me the result logged for CC[N+](=O)[O-] in this assay?
Solution: inactive

Problem: Could you please tell me the result logged for Cc1cc(C)c(C2=C(OC(=O)CC(C)(C)C)C3(CCCC3)OC2=O)c(C)c1 in this assay?
Solution: inactive

Problem: Could you please tell me the result logged for O=[N+]([O-])c1cc([N+](=O)[O-])c2ccccc2c1 in this assay?
Solution: inactive

---

test: ATG_TA_CIS: Attagene CIS-FACTORIAL HepG2 Assay for human TA Basal Promoter (AID 2282964); details: HepG2 Attagene CIS-factorial TA basal promoter reporter; actives raise or lower the signal
Activity calls are given as the source filed them. The calls were made as follows: active = hit-call score of the fitted dose curve at least 0.9, where 1 is the maximum; inactive = score below 0.9.
Experimental Endpoint: outcome

INSERT INTO assay_data (compound, measurement) VALUES
  ('CC1(C)C(=O)NC(=O)NC1=O', 'inactive'),
  ('CC1OC(C)OC(C)O1 (stereo not drawn)', 'inactive'),
  ('O=[N+]([O-])c1cc(C(F)(F)F)c(Cl)c([N+](=O)[O-])c1Cl', 'inactive');

---

assay: ATG_E_Box_CIS: Attagene CIS-FACTORIAL HepG2 Assay for human Enhancer Box (E-box) (AID 2282936); conditions: HepG2 E-box cis-reporter transcription, actives raise or lower the signal
The source made the active and inactive calls. The calls were made as follows: active = hit-call score of the fitted dose curve at least 0.9, where 1 is the maximum; inactive = score below 0.9.
// allowed return values: t = active, f = inactive

Use the examples below as a reference point.
INSERT INTO assay_data (compound, label_value) VALUES
  ('O=[N+]([O-])O.O=[N+]([O-])O.[Cd]', 'f'),
  ('CC1(C)[C@H](C(=O)O[C@H](C#N)c2cccc(Oc3ccccc3)c2)[C@@H]1C=C(Br)Br', 'f'),
  ('O=S(=O)(O)O', 'f'),
  ('O=C(CCN1CC1)OCC(CO)(COC(=O)CCN1CC1)COC(=O)CCN1CC1', 'f'),
  ('c1ccc(P(c2ccccc2)c2ccccc2)cc1', 'f'),
  ('CCC(=O)c1ccc(Cl)cc1', 'f');

Problem: Could you please tell me the result logged for CCOP(O)OCC in this assay?
Solution: f

Problem: Could you please tell me the result logged for Nc1ccccc1C(=O)OCCc1ccccc1 in this assay?
Solution: f

---

assay: CCTE_Shafer_MEA_dev_inter_network_spike_interval_mean: CCTE's Neural Network Formation Assay for Mean Inter-network Spike Interval, Shafer Lab (AID 2284047)
Activity calls are given as the source filed them. How the source made its calls: active means hit-call score of the fitted dose curve at least 0.9, where 1 is the maximum; inactive means score below 0.9.
// allowed return values: active, inactive

INSERT INTO results (molecule, label_value) VALUES
  ('CP(=O)(O)CC[C@H](N)C(=O)O', 'inactive');

Problem: Could you please tell me the result logged for CN[C@]1(c2ccccc2Cl)CCCCC1=O in this assay?
Solution: inactive

Problem: Could you please tell me the result logged for CCOP(=O)(OCC)OC(Cl)C(Cl)(Cl)Cl (configuration not stated) in this assay?
Solution: inactive

Problem: Could you please tell me the result logged for CC1(C)[C@H](C=C(Cl)Cl)[C@@H]1C(=O)O[C@@H](C#N)c1cccc(Oc2ccccc2)c1 in this assay?
Solution: inactive

Problem: Could you please tell me the result logged for O.O.O.O.O.[Cd+2].[Cd+2].[Cl-].[Cl-].[Cl-].[Cl-] in this assay?
Solution: active

Problem: Could you please tell me the result logged for C[n+]1ccc(-c2ccccc2)cc1 in this assay?
Solution: inactive

Problem: Could you please tell me the result logged for Cn1nc(C(F)(F)F)c(CS(=O)(=O)C2=NOC(C)(C)C2)c1OC(F)F in this assay?
Solution: inactive

Problem: Could you please tell me the result logged for Brc1ccc(Oc2cc(Br)c(Br)cc2Br)c(Br)c1 in this assay?
Solution: inactive

Problem: Could you please tell me the result logged for CC1(C)[C@H](C=C(Cl)Cl)[C@H]1C(=O)OCc1c(F)c(F)cc(F)c1F in this assay?
Solution: inactive

Problem: Could you please tell me the result logged for CC1(C)[C@@H](C=C(Cl)Cl)[C@@H]1C(=O)O[C@@H](C#N)c1ccc(F)c(Oc2ccccc2)c1 in this assay?
Solution: inactive

Problem: Could you please tell me the result logged for COC(=O)[C@H]1[C@@H](OC(=O)c2ccccc2)C[C@@H]2CC[C@H]1N2C in this assay?
Solution: inactive

Problem: Could you please tell me the result logged for [CH3][Hg][Cl] in this assay?
Solution: active

Problem: Could you please tell me the result logged for CC1(C)C(C=C(Cl)c2ccc(Cl)cc2)C1C(=O)OC(C#N)c1ccc(F)c(Oc2ccccc2)c1 (configuration not stated) in this assay?
Solution: active

Problem: Could you please tell me the result logged for Cc1ccc(OP(=O)(Oc2ccc(C)cc2)Oc2ccc(C)cc2)cc1 (tested in a mixture with another compound) in this assay?
Solution: inactive

Problem: Could you please tell me the result logged for CC(C)CCCCCCCOP(=O)(Oc1ccccc1)Oc1ccccc1 in this assay?
Solution: inactive

Problem: Could you please tell me the result logged for CNC(=N[N+](=O)[O-])NCC1CCOC1 (configuration not stated) in this assay?
Solution: inactive

Problem: Could you please tell me the result logged for CP(=O)(O)CCC(N)C(=O)O (configuration not stated) in this assay?
Solution: inactive

---

experiment: IUF_NPC3_neuronal_differentiation_120hr: Leibniz Research Institute for Environmental Medicine (IUF) 120-hour Neuronal Differentiation Assay (NPC3) (AID 2284301)
Calls of active or inactive are those of the source. Rule for the calls: active = hit-call score of the fitted dose curve at least 0.9, where 1 is the maximum; inactive = score below 0.9.
// allowed return values: YES = active, NO = inactive

Use the examples below as a reference point.
INSERT INTO assay_data (compound, label_value) VALUES
  ('CCOP(=O)(Oc1cnc(C(C)(C)C)nc1)OC(C)C (stereo not drawn)', 'NO'),
  ('CC1(C)C(C=C(Cl)Cl)C1C(=O)O[C@H](C#N)c1cccc(Oc2ccccc2)c1 (stereo partly drawn)', 'YES');

Kindly review the next compound as well.
Problem: Could you please tell me the result logged for O=C1N[C@@H]2C(=C[C@H](O)[C@@H](O)[C@H]2O)c2cc3c(c(O)c21)OCO3 in this assay?
Solution: YES

---

molecular target: bovine Estrogen Receptor (ER), ESR1 (gene 407238) (UniProt P49884); assay: NVS_NR_bER: NovaScreen (NVS) Nuclear Receptor Binding Assay for bovine Estrogen Receptor (ER) (AID 2283345);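 also: actives lower the bound radioligand count which means they displace the ER ligand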
Sequence (P49884 whole entry, looked up): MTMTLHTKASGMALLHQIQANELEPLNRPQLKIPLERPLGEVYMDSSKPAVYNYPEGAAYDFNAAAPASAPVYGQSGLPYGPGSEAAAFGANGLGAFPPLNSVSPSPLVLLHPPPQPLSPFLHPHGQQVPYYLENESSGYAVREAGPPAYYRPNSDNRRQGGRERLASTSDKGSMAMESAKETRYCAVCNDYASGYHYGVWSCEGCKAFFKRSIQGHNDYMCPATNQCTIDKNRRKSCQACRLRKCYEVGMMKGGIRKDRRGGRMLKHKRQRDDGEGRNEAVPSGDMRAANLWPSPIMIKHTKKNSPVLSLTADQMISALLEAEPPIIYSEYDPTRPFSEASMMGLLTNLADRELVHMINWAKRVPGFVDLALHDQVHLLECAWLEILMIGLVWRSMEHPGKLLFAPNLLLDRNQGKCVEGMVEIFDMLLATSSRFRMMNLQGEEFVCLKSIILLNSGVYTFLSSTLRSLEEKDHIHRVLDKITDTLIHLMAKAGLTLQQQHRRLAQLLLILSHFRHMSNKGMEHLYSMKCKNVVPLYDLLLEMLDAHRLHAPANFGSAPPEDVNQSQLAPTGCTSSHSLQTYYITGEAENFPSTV
Results filed as inconclusive are left out. Active and inactive are the calls of the source. Rule for the calls: active = hit-call score of the fitted dose curve at least 0.9, where 1 is the maximum; inconclusive = response in the unintended direction; inactive = score below 0.9.
// allowed return values: 1 (active), -1 (inactive)

Use the examples below as a reference point.
INSERT INTO assay_data (chemical_string, label_value) VALUES
  ('Oc1ccc(C2(c3ccc(O)cc3)c3ccccc3-c3ccccc32)cc1', -1),
  ('C=CC(=O)OCCCCO', -1),
  ('O=C1C(Cl)=C(Cl)C(=O)C(Cl)=C1Cl', -1),
  ('[Cd+2].[Cl-].[Cl-]', -1),
  ('O=[N+]([O-])c1ccc(Oc2ccc(C(F)(F)F)cc2[N+](=O)[O-])cc1', -1);

Problem: Could you please tell me the result logged for COc1ccc(N)cc1N in this assay?
Solution: -1

Problem: Could you please tell me the result logged for N#Cc1sc2c(=O)c3ccccc3c(=O)c=2sc1C#N in this assay?
Solution: 1

Problem: Could you please tell me the result logged for CCOP(=O)(Sc1ccccc1)Sc1ccccc1 in this assay?
Solution: -1

Problem: Could you please tell me the result logged for c1coc(-c2nc3ccccc3[nH]2)c1 in this assay?
Solution: -1

---

target: Cellular tumor antigen p53 (Homo sapiens); test: TOX21_p53_BLA_p2_ratio: Tox21 HCT-116 p53 Agonism Beta-lactamase Assay, Ratio, Phase 2 (AID 2283592)
Inconclusive results are not listed. Activity calls are given as the source filed them. Rule for the calls: active = hit-call score of the fitted dose curve at least 0.9, where 1 is the maximum; inconclusive = response in the unintended direction; inactive = score below 0.9.
// allowed return values: 1.0 = active, 0.0 = inactive

Use the examples below as a reference point.
INSERT INTO measurements (compound, label_value) VALUES
  ('COC(=O)C(C)N(C(=O)c1ccco1)c1c(C)cccc1C (stereo not given)', 0.0),
  ('O=S(=O)(c1ccccc1)c1ccccc1', 0.0),
  ('C[C@]12N[C@H](Cc3ccccc31)c1ccccc12', 0.0),
  ('Nc1nc(N)nc(N)n1', 0.0),
  ('Cc1ccc2c(c1)[C@]13CCCC[C@@H]1[C@H](C2)N(C)CC3', 0.0);

Problem: Could you please tell me the result logged for NC(=O)CN1CC(O)CC1=O (stereo not given) in this assay?
Solution: 0.0

Problem: Could you please tell me the result logged for CCCCCCC#N in this assay?
Solution: 0.0

Problem: Could you please tell me the result logged for OCC(Cl)CCl (stereo not given) in this assay?
Solution: 0.0

Problem: Could you please tell me the result logged for CN1[C@@H]2CC[C@H]1CC(O)C2 (stereo not given in full) in this assay?
Solution: 0.0

Problem: Could you please tell me the result logged for CCC1(CC)C(=O)NC(=O)N(C)C1=O in this assay?
Solution: 0.0

Problem: Could you please tell me the result logged for C=C(C#N)CCC#N in this assay?
Solution: 0.0
